Entry source: PubChem BioAssay (NCI)

Test system: NCI-H226 lung
protocol summary: NCI tumour cell line growth inhibition, 48 h
parameter: TGI (µM)
Give your result in µM as a bare value.

Query string: Reported TGI, compound Clc1ccc(/C=C2\CCCC3C2=Nc2ccccc2NC3c2ccc(Cl)cc2)cc1 (configuration not stated) : ____
Result string: 4.19

Query string: Reported TGI, compound CC(C)=CC1CCc2ccccc2N1S(=O)(=O)c1ccc(C)cc1 (configuration not stated) : ____
Result string: 6.05

Query string: Reported TGI, compound CCCCCCC[C@@H](O)CC(=O)NC(CC(C)C)C(=O)NC(CCC(=O)O)C(=O)NC1C(=O)NC(C(C)C)C(=O)NC(CC(C)C)C(=O)NC(CO)C(=O)NC(CC(C)C)C(=O)NC(CO)C(=O)NC(C(C)CC)C(=O)OC1C (some centres not stated) : ____
Result string: 34.2
